- experiment-description: modulators of AGP1-GFP expression in yeast TOR pathway, primary screen, cell-based, multiplex flow cytometry, S. cerevisiae, MLPCN library (AID 2066);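 note: median GFP channel fluorescence of the gated AGP1 strain per well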
- protocol-conditions: 3 h, at 10 µM, active compounds read high, GFP as percent of DMSO wells
The campaign covered roughly 320,000 compounds. About 50 (0.02%) were called active. The sample holds actives, similar compounds and a random draw of the others, so the mix is not that of the screen.
measured-attribute: GFP response vs DMSO

Previously resolved entries follow.
compound | GFP response vs DMSO
COc1ccc(C2=NN(C(=O)CSc3nc(=O)n4ccc(C)cc4n3)C(c3ccc(C)cc3)C2)cc1 (stereo not drawn) | 107% (inactive)
N#C/C=C/N1CCN(Cc2ccc3c(c2)OCO3)CC1 | 93% (inactive)
OC(CNCc1ccc(Cl)c(Cl)c1)c1ccccc1 (stereo not drawn) | 98.8% (inactive)
O=C(O)CCCCOn1ccnc1 | 91.2% (inactive)
C/C=C/c1ccc(OCC(=O)NNC(=O)CN(C)S(=O)(=O)c2ccc(C)cc2)c(OC)c1 | 91.6% (inactive)

Continue with the next compound.
### Prompt So what does the record say about GFP response vs DMSO for Cn1nnnc1SCC(=O)Nc1ccccc1C(=O)NC1CC1 ?
### Response 102% (inactive)
